B1: NETO1 (parent)
chain: GFSPIIGRFCGQQNPPVIKSSGRF

Variants of: B1
procedure-summary: protein stability index of a GFP-peptide fusion (GPS, HEK-293T) (PSI 1-6); higher = more stable;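 further: lentivirally expressed fusions sorted by FACS into six bins by GFP to DsRed ratio, PSI derived from sequencing read proportions per bin multiplied by bin number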
condition-info: c terminus: a fixed tail appended
protein stability index by entry:
assay-endpoint: protein stability index

variant_name=P15C assay_endpoint="protein stability index" observed_value=2.19
variant_name=S21M assay_endpoint="protein stability index" observed_value=2.18
variant_name=G7M assay_endpoint="protein stability index" observed_value=1.56
variant_name=S3V assay_endpoint="protein stability index" observed_value=2.03
variant_name=I18L assay_endpoint="protein stability index" observed_value=2.17
variant_name=P4F assay_endpoint="protein stability index" observed_value=2.09
variant_name=S21H assay_endpoint="protein stability index" observed_value=2.06
